Target: T1, O13-bA
T1 chain: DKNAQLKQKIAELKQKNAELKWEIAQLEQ
Test: two-hybrid library CCNG1;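 note: natural log of median RNA to DNA barcode read ratio; higher means stronger binding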
measured.parameter: interaction score

I: DKIAQLKQEIAELEQENAELEWENAQLEQ [O11-bA]
II: DEIAQLEQKIAELKQKNAELKWKNAQLKQ [O12-bA]
Of the two listed items, which has the higher interaction score? First: I Second: II Mark your selection by writing its label. II
(II: -0.478, I: -1.12)

P: DKNAQLKQENAELEQEIAELEWEIAQLEQ [O1-bA]
Q: DKNAQLKQENAELEQKIAELKWKIAQLKQ [O10-bA]
Dear colleague, could you let me know whether P or Q has the lower recorded interaction score? Thanks. Write the label of whichever entry you select. P
(P: 0.415, Q: 0.636)
